tested.system: E3 ubiquitin-protein ligase XIAP (Homo sapiens)
procedure.summary: XIAP binders, primary screen, biophysical, small-molecule microarray, fluorescence 635 nm (AID 1181);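 also: score merges 667 nm emission and signal to noise over triplicate slides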
assay.conditions: small-molecule microarray binding, higher = more signal

compound | composite z-score
CCCCc1nc2c(c3c1C[C@H](C)OC3)CN(CCOc1ccccc1)CC2 | 0.437
CO[C@H]1COC(=O)[C@@H](C)COC(=O)[C@@H](OCc2ccccc2)C=C[C@@H]1C | 0.131
COC(=O)CC=C[C@@H](C)[C@@H](C=NO[C@@H](C)c1cn([C@H](CO)Cc2ccccc2)nn1)NS(=O)(=O)c1ccc(C)cc1 | -0.349
CCOC(=O)[C@H](CC(C)C)NC(=O)CCC1CC(OC(=O)NCc2ccc3c(c2)OCO3)CC2(CCCC(COC(=O)NCC(c3ccccc3)c3ccccc3)O2)O1 (stereo partly drawn) | -0.17
Cc1ccc(S(=O)(=O)NC(CCc2ccccc2)CC(=O)C(C)(C)C)cc1 (stereo not drawn) | -0.195
Cc1ccc(S(=O)(=O)N[C@H]2COC(=O)CC=C[C@@H](C)COC(=O)CC=C[C@@H]2C)cc1 | -0.239
COC(=O)CC=C[C@@H](C)[C@@H](C=NO[C@H](C)c1cn([C@H](CO)Cc2ccccc2)nn1)NS(=O)(=O)c1ccc(C)cc1 | -0.206
CC[C@@H](c1ccccc1)n1c(=O)n2n(c1=O)[C@H]1[C@H](O)[C@@H]3O[C@@H]3C(=NOC[C@@H](O)COCc3ccco3)[C@H]1CC2 | -0.117

====

Tested on: wheat germ agglutinin (Triticum aestivum), Alexa647-labelled
procedure.summary: wheat germ agglutinin binders on compound microarrays, profiling panel, artefact control for SMM control-protein annotation, biochemical, small-molecule microarray, 635/667 nm fluorescence (AID 1140);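 also: score merges 667 nm feature emission with signal to noise over triplicate slides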
assay.conditions: WGA-A647 binding, 635 nm fluorescence, higher = more signal
test.readout: composite z-score

compound | recorded.value
CC(C)CON=C1C[C@@H](O)[C@@H](O)[C@@H]2[C@@H]3C(=O)N(Cc4ccc5c(c4)OCO5)C(=O)[C@@H]3CC[C@H]12 | -0.0178
CCOC(=O)[C@H](CC(C)C)NC(=O)CCC1CC(OC(=O)NCc2cccc3ccccc23)CC2(CCCC(COC(=O)NCC3CCCCC3)O2)O1 (some centres not stated) | 0.0121
COc1ccc(COC(=O)NN=C2C[C@@H](O)[C@@H](O)[C@@H]3[C@@H]4C(=O)N(Cc5ccccc5)C(=O)[C@@H]4CC[C@H]23)cc1 | 0.266
O=C(NN=C1C[C@@H](O)[C@@H](O)[C@@H]2[C@@H]3C(=O)N(C[C@@H]4CCCO4)C(=O)[C@@H]3CC[C@H]12)OCc1ccccc1 | 0.717
C#CCCCON=C1C[C@@H](O)[C@@H](O)[C@@H]2[C@@H]3C(=O)N(CCC(=O)OCC)C(=O)[C@@H]3CC[C@H]12 | 0.101
O=C1C[C@@H](O)[C@@H](O)[C@@H]2[C@@H]3C(=O)N(Cc4ccc5c(c4)OCO5)C(=O)[C@@H]3CC[C@H]12 | -0.203
CO[C@H]1COC(=O)CC=C[C@H](C)[C@@H](OC)COC(=O)[C@@H](C)COC(=O)CC=C[C@@H]1C | -1.05

====

procedure.summary: binders from COS7 lysate, DM2A8 probe, primary screen, torsin A project, cell lysate, small-molecule microarray, fluorescence 635/667 (AID 1065)
assay.conditions: higher = more signal, COS7 lysate expressing mutant human TOR1A

compound | composite z-score
COC(=O)C=CCCc1coc(C=CCNC(=O)OC)n1 | 0.924
CCOC(=O)[C@H](CC(C)C)NC(=O)CCC1CC(OC(=O)NCCc2ccc(F)cc2)CC2(CCCC(COC(=O)NCC3CCCCC3)O2)O1 (some centres undefined) | 0.101
CC(C)C[C@H](NC(=O)CCC1CC(OC(=O)NCc2cccc3ccccc23)CC2(CCCC(COC(=O)NCc3ccccc3)O2)O1)C(=O)NCC(c1ccccc1)c1ccccc1 (some centres undefined) | 0.139
O=C1CCCC=C1C(O)CCCCBr (centres undefined) | -0.0756
CON=C(C)CCC(=O)OC[C@H]1O[C@H](c2ccccc2)C=C[C@@H]1Oc1ccc(OC)cc1 | 0.0837
O=C1CCCC(C2=CCCCC2=O)C1 (centres undefined) | 0.213
CCCCc1nc2c(c3c1C[C@H](C)OC3)CN(CCOc1ccccc1)CC2 | 0.575
COC(=O)[C@@H]1CC[C@H](C)[C@@H](c2ccc(C)cc2)N1C(=O)c1ccc(C=NOC[C@@H](C)[C@H](OCc2ccccc2)C(C)C)cc1 | 0.191
CC(=O)OC[C@H]1OC(ON=CC[C@@H]2C=C[C@H](OC(C)=O)[C@@H](COC(C)=O)O2)[C@H](OC(C)=O)[C@@H](OC(C)=O)[C@@H]1OC(C)=O (some centres undefined) | 0.585

====

procedure.summary: modulators of S6 phosphorylation in cells, primary screen, cell-based, A549, cytoblot, luminescence, serum-stimulated (AID 1158);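 also: serum-stimulated A549 lung adenocarcinoma cells; signal is phosphorylated S6 detected by cytoblot immunostaining with HRP secondary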
assay.conditions: A549 phospho-S6 cytoblot, 5 h, higher = more signal
test.readout: z-score

compound | recorded.value
CO[C@H]1COC(=O)CC=C[C@H](C)[C@@H](OC)COC(=O)[C@@H](C)COC(=O)CC=C[C@@H]1C | -0.0875
O=C1CCCC=C1C(CCc1ccccc1)OC(=O)c1ccc(Br)cc1 (stereo not given) | 0.307
C[C@@H]1CC[C@H]2C(=O)O[C@@H](Cc3ccccc3)CN2[C@H]1c1ccc(Br)cc1 | -0.536
COC(=O)[C@H]1O[C@@H](c2c(OC)c(OC)c(C)c(OC)c2OC)[C@H](C)[C@@H](O)[C@H]1C | 0.817
CO[C@@H]1COC(=O)[C@@H](C)COC(=O)[C@@H](C)NC(=O)CC=C[C@@H]1C | 1

====

procedure.summary: E. coli acrAB mutant growth effects, primary screen, E. coli filamentation inducers, strain DRC39, OD650, 48 h (AID 1179);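 also: screen aims at cell division blockers that make cells filament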
assay.conditions: E. coli DRC39 delta-acrAB growth, higher = more signal, called active from +8 up or from −8 down
Listed here: items and their measured z-score.

compound | z-score
O=C(NN=C1C[C@@H](O)[C@@H](O)[C@@H]2[C@@H]3C(=O)N(C[C@@H]4CCCO4)C(=O)[C@@H]3CC[C@@H]12)OCc1ccccc1 | 0.118
CC(C)CON=C1C[C@@H](O)[C@@H](O)[C@@H]2[C@@H]3C(=O)N(C(C)(C)C)C(=O)[C@@H]3CC[C@H]12 | 0.476
O=C(NN=C1C[C@@H](O)[C@@H](O)[C@@H]2[C@@H]3C(=O)N(C[C@@H]4CCCO4)C(=O)[C@@H]3CC[C@H]12)OCc1ccccc1 | 0.191
CC(=O)OC[C@H]1O[C@@H](ON=C(C)CCN2CCCc3nc(C)c(C)cc32)[C@H](OC(C)=O)[C@@H](OC(C)=O)[C@@H]1OC(C)=O | -1.26
COC(=O)CC=C[C@@H](C)[C@@H](C=NOCC[C@@H]1C=C[C@H](OC(C)=O)[C@@H](COC(C)=O)O1)NS(=O)(=O)c1ccc(C)cc1 | 0.402
COC(=O)[C@H](C)NC(=O)CCC1CC(OC(=O)NCc2ccc3c(c2)OCO3)CC2(CCCC(COC(=O)NCCc3ccccc3OC)O2)O1 (stereo partly specified) | 0.451

====

procedure.summary: S. cerevisiae RM11-1a growth modifiers, primary screen, strain RM11-1a, OD600, basal, 24 h (AID 1177);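 also: cultures grown under basal conditions with no added stressor; test concentration not given here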
assay.conditions: OD600, 24 h, higher = more signal, called active from +8 up or from −8 down

record.smiles | z-score
CO[C@H]1COC(=O)CC=C[C@H](C)COC(=O)[C@@H](C)NC(=O)CC=C[C@@H]1C | -0.652
O=C1C[C@@H](O)[C@@H](O)[C@@H]2[C@@H]3C(=O)N(Cc4ccccc4)C(=O)[C@@H]3CC[C@@H]12 | 0.0564
CC[C@@H](c1ccccc1)n1c(=O)n2n(c1=O)[C@H]1[C@H](O)[C@@H]3O[C@@H]3C(=NOC[C@@H](O)COCc3ccco3)[C@H]1CC2 | -1.11
CC(C)CON=C1C[C@@H](O)[C@@H](O)[C@@H]2[C@@H]3C(=O)N(C(C)(C)C)C(=O)[C@@H]3CC[C@H]12 | -0.131
COC(=O)[C@@H]1CC[C@H](C)[C@@H](c2ccc(C)cc2)N1C(=O)c1ccc(C=NOCC[C@@H]2C=C[C@H](OC(C)=O)[C@@H](COC(C)=O)O2)cc1 | 1.98
CCc1cc2c(nc1CC)CCN(CCC(C)=NO[C@H](C)c1cn([C@H](CO)Cc3ccccc3)nn1)C2 | -0.0857
CO[C@H]1COC(=O)CC=C[C@H](C)[C@@H](OC)COC(=O)[C@@H](C)NC(=O)CC=C[C@@H]1C | -0.937
